targetUnderTest: Dual specificity protein kinase CLK3 (Homo sapiens) (UniProt P49761)
Sequence (P49761 whole entry, looked up): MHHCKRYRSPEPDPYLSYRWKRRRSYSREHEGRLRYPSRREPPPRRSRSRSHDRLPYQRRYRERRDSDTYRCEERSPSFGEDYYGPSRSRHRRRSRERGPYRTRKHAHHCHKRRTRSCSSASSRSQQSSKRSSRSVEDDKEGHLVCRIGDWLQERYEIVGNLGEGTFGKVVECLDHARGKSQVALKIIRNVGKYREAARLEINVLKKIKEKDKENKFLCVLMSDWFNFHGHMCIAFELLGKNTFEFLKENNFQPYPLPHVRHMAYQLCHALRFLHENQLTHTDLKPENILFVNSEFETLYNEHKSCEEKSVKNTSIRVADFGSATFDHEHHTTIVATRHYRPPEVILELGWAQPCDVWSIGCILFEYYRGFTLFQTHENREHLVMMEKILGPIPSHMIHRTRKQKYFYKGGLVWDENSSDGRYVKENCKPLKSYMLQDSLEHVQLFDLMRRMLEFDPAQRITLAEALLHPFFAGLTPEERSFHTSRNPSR
Outcome: Yes for ΔTm of at least 0.4 °C; No for anything lower.

- compound: "COC1=C2C[C@@H](C)C[C@H](OC)[C@H](O)[C@@H](C)/C=C(\\C)[C@H](OC(N)=O)[C@@H](OC)/C=C\\C=C(/C)C(=O)NC(=CC1=O)C2=O"
  answerLabel: "No"
- compound: "O=C1Nc2ccccc2/C1=C\\c1ccc[nH]1"
  answerLabel: "Yes"
- compound: "COc1ccc(COc2ccc(Cc3cnc(N)nc3N)cc2OC)cc1"
  answerLabel: "No"
- compound: "O=C1Cc2c([nH]c3ccc([N+](=O)[O-])cc23)-c2ccccc2N1"
  answerLabel: "Yes"
- compound: "CN(C)c1ccc(CC2C(=O)Nc3ccccc32)cc1 (stereo not given)"
  answerLabel: "No"
- compound: "O=C1Nc2ccccc2/C1=C/c1cnc[nH]1"
  answerLabel: "Yes"
- compound: "CN(C)CC1CCn2c(c(C3=C(c4c[nH]c5ccccc45)C(=O)NC3=O)c3ccccc32)C1 (stereo not given)"
  answerLabel: "No"
- compound: "Cc1cc2ncc(-c3ccccc3)nc2cc1C"
  answerLabel: "No"
- compound: "Cn1cc(/C=C2/C(=O)Nc3ccc(S(N)(=O)=O)cc32)c2ccccc21"
  answerLabel: "Yes"
